system: Candida albicans; assay: Antifungal activity against Candida albicans ATCC 90028 at 140 ug/disk after 18 to 24 hr by disk diffusion method; type: functional; conditions: read-out: DIZ
Recorded zone of inhibition at 140 µg/disc values for a group of compounds are listed next.

# compound, system, measurement_units, zone of inhibition at 140 µg/disc
rows = [
    ("CN(N)S(=O)(=O)c1ccccc1", "Candida albicans", "mm", 0),
    ("C/C(=N\\N(C)S(=O)(=O)c1ccccc1)c1ccccc1O", "Candida albicans", "mm", 12),
    ("CN(/N=C/c1c(O)ccc2ccccc12)S(=O)(=O)c1ccccc1", "Candida albicans", "mm", 16),
    ("CN(/N=C/c1cccs1)S(=O)(=O)c1ccccc1", "Candida albicans", "mm", 0),
    ("NCC(O)CNS(=O)(=O)c1ccccc1 (stereo unspecified)", "Candida albicans", "mm", 0),
    ("O=S(=O)(NCCO)c1ccccc1", "Candida albicans", "mm", 0),
]

Value source: ChEMBL document CHEMBL3044670
